Molecular target: T1, human TL1A (human, UniProt O95150 72-251, limits assumed)
T1 construct: also called tumor necrosis factor-like cytokine 1A; TNFSF15
T1 sequence (looked up): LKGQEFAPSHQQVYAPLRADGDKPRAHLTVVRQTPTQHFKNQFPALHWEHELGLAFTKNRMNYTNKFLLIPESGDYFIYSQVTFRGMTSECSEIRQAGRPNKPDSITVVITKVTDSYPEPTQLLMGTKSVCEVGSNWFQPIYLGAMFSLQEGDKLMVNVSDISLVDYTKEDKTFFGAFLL
Test: ELISA titration on plate-coated human TL1A, unpurified culture supernatant
List of Kd values.
Lab book: enter the figure in nM, no units written.

| Binder | Kd / nM |
| --- | --- |
| A158 (antibody, IgG1, V domains shown) VH: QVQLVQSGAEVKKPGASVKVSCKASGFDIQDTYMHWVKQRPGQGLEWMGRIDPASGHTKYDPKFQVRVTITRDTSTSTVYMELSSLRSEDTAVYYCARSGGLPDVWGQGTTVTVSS VL: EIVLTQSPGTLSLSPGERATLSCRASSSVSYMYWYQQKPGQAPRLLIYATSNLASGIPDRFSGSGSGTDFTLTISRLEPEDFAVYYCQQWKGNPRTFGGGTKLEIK | 0.066 |

# context switch: different binder, same Kd
Lookup: Form field: reported Kd of A215 (antibody, IgG1, V domains shown) VH: QVQLVQSGAEVKKPGASVKVSCKASGFDIQDTYMHWVRQRPGQGLEWMGRIDPASGHTKYDPKFQVRVTITTDTSTSTAYLELSSLRSEDTAVYYCARSGGLPDVWGQGTTVTVSS VL: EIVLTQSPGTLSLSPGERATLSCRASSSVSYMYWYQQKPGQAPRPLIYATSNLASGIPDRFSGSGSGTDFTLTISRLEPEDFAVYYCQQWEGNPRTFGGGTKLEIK
Found: 0.048
